The measured values listed here are drawn from paper PMC6863848.

Quick reference for tissue uptake at 3 h among some molecules
Test: Ex vivo biodistribution and tumor targeting
Settings: female, BALB/c nu/nu, mouse, lung, iv, 45 pmol per mouse, total radioactivity, Lung uptake, PC-3-xenografted BALB/c nu/nu mice, iv 25 kBq/45 pmol, 3 h pi, 4 mice per data point
Numbers only here, please. The scale is %ID/g.

CC(C)C[C@H](NC(=O)C[C@H](O)[C@H](CC(C)C)NC(=O)[C@H](Cc1c[nH]cn1)NC(=O)CNC(=O)[C@@H](NC(=O)[C@H](C)NC(=O)[C@H](Cc1c[nH]c2ccccc12)NC(=O)[C@H](CCC(N)=O)NC(=O)[C@@H](Cc1ccccc1)NC(=O)COCCOCCNC(=O)CCC(C(=O)O)N1CCN(CC(=O)O)CCN(CC(=O)O)CCN(CC(=O)O)CC1)C(C)C)C(N)=O (stereo partly shown) :: 0.07
CC(C)C[C@H](NC(=O)C[C@H](O)[C@H](CC(C)C)NC(=O)[C@H](Cc1c[nH]cn1)NC(=O)CNC(=O)[C@@H](NC(=O)[C@H](C)NC(=O)[C@H](Cc1c[nH]c2ccccc12)NC(=O)[C@H](CCC(N)=O)NC(=O)[C@@H](Cc1ccccc1)NC(=O)COCCOCCNC(=O)CN1CCN(CC(=O)O)CCN(CC(=O)O)CC1)C(C)C)C(N)=O :: 0.065
CC(C)C[C@H](NC(=O)C[C@H](O)[C@H](CC(C)C)NC(=O)[C@H](Cc1c[nH]cn1)NC(=O)CNC(=O)[C@@H](NC(=O)[C@H](C)NC(=O)[C@H](Cc1c[nH]c2ccccc12)NC(=O)[C@H](CCC(N)=O)NC(=O)[C@@H](Cc1ccccc1)NC(=O)COCCOCCNC(=O)CN1CCN(CC(=O)O)CCN(CC(=O)O)CCN(CC(=O)O)CC1)C(C)C)C(N)=O :: 0.06

Okay, next one:
I am curious: what tissue uptake at 3 h value has been reported for CC(C)C[C@H](NC(=O)C[C@H](O)[C@H](CC(C)C)NC(=O)[C@H](Cc1c[nH]cn1)NC(=O)CNC(=O)[C@@H](NC(=O)[C@H](C)NC(=O)[C@H](Cc1c[nH]c2ccccc12)NC(=O)[C@H](CCC(N)=O)NC(=O)[C@@H](Cc1ccccc1)NC(=O)COCCOCCNC(=O)CCC(C(=O)O)N1CCN(CC(=O)O)CCN(CC(=O)O)CC1)C(C)C)C(N)=O (stereo partly shown) ?
0.05
